target_under_test: human 5-HT7R (Homo sapiens)
Construct: expressed in transfected cells; host or cells: HEK293
Sequence (P34969 whole entry): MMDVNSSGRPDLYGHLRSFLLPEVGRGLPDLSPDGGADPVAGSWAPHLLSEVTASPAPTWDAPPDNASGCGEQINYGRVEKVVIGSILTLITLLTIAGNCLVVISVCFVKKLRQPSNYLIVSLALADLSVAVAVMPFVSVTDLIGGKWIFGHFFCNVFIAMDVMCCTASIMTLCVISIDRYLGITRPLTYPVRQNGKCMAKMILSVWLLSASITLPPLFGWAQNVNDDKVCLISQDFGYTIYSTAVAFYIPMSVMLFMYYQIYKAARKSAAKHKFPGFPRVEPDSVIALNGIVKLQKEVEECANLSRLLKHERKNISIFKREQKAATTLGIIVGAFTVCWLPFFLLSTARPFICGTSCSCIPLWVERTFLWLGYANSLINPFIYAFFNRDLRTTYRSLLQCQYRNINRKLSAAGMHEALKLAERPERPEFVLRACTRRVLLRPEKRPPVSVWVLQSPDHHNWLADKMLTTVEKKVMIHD
run_description: Radioligand binding assay, 5-HT7R ([3H]-5-CT)
condition_description: HEK293 cells stably expressing human 5-HT7R
measurement_type: pKi
Scale: negative log10 of molar concentration, which is what pKi denotes.

Query: Report measured pKi; entry is `CN1CCN(c2nc(N)nc(COc3ccccc3C(C)(C)C)n2)CC1`
Response: 5.20

Query: Report measured pKi; entry is `CC(C)c1ccccc1OCc1nc(N)nc(N2CCN(C)CC2)n1`
Response: 4.79

Query: Report measured pKi; entry is `CC(C)c1cccc(OCc2nc(N)nc(N3CCN(C)CC3)n2)c1`
Response: 5.24

Query: Report measured pKi; entry is `Cc1ccc(C(C)C)c(OCCCCCc2nc(N)nc(N3CCN(C)CC3)n2)c1`
Response: 6.11

Query: Report measured pKi; entry is `Cc1ccc(C(C)C)c(OCCCc2nc(N)nc(N3CCN(C)CC3)n2)c1`
Response: 5.18

###

Property: log10 Ki; scope: individual molecules
target_under_test: human 5-HT7R (Homo sapiens)
Construct: expressed in transfected cells; host or cells: HEK293
run_description: Radioligand binding assay, 5-HT7R ([3H]-5-CT)
condition_description: HEK293 cells stably expressing human 5-HT7R
Values are log10 of Ki in µM.

[
  {
    "smiles_text": "CC(C)c1ccc(OCCCc2nc(N)nc(N3CCN(C)CC3)n2)cc1",
    "measured_number": 0.71
  },
  {
    "smiles_text": "CC(C)c1ccc(OCc2nc(N)nc(N3CCN(C)CC3)n2)cc1",
    "measured_number": 1.00
  },
  {
    "smiles_text": "Cc1ccc(OCc2nc(N)nc(N3CCN(C)CC3)n2)c(C(C)(C)C)c1",
    "measured_number": 1.04
  },
  {
    "smiles_text": "Cc1ccccc1OCCCc1nc(N)nc(N2CCN(C)CC2)n1",
    "measured_number": 1.17
  },
  {
    "smiles_text": "CN1CCN(c2nc(N)nc(COc3ccc(C(C)(C)C)cc3C(C)(C)C)n2)CC1",
    "measured_number": 0.93
  }
]

Query: Report measured log10 Ki; entry is `Cc1cccc(OCCCc2nc(N)nc(N3CCN(C)CC3)n2)c1`
Response: 1.48

Query: Report measured log10 Ki; entry is `CC(C)c1ccccc1OCCCc1nc(N)nc(N2CCN(C)CC2)n1.Cl`
Response: 0.95

Query: Report measured log10 Ki; entry is `Cc1ccc(C(C)(C)C)c(OCc2nc(N)nc(N3CCN(C)CC3)n2)c1.Cl`
Response: 1.18

Query: Report measured log10 Ki; entry is `CC(C)c1ccccc1OCCCCc1nc(N)nc(N2CCN(C)CC2)n1`
Response: -0.18

Query: Report measured log10 Ki; entry is `Cc1cccc(OCCCCc2nc(N)nc(N3CCN(C)CC3)n2)c1`
Response: 0.80

Query: Report measured log10 Ki; entry is `CN1CCN(c2nc(N)nc(COc3ccc(C(C)(C)C)cc3)n2)CC1`
Response: 0.62

Query: Report measured log10 Ki; entry is `CN1CCN(c2nc(N)nc(COc3c(C(C)(C)C)cccc3C(C)(C)C)n2)CC1`
Response: 0.91

Query: Report measured log10 Ki; entry is `CC(C)c1cccc(C(C)C)c1OCc1nc(N)nc(N2CCN(C)CC2)n1`
Response: 1.53

Query: Report measured log10 Ki; entry is `CC(C)c1ccccc1OCCCCCc1nc(N)nc(N2CCN(C)CC2)n1`
Response: 0.54

src = paper PMC9919591
